Structures can show the parent of a compound that is named as a salt.
Here's a batch of compounds along with measured IC50 for TrkA (Homo sapiens (Human), UniProt P04629).

- COMPOUND: "COCCN1CC(c2ccccc2)[C@H](NC(=O)Nc2cnn3ccccc23)C1 (some centres unmarked) [Example 636]"
  IC50: "0.1 to 1 µM"
- COMPOUND: "COCCN1C[C@@H](NC(=O)Nc2cc(C(C)(C)C)nn2-c2ccccc2)[C@H](c2ccccc2)C1 [Example 1]"
  IC50: "< 0.1 µM"
- COMPOUND: "COCCN1C[C@@H](NC(=O)Nc2c3c(nn2-c2ccncc2)CCC3)[C@H](c2ccccc2)C1 [Example 151]"
  IC50: "< 0.1 µM"
- COMPOUND: "COCCN1C[C@@H](NC(=O)Nc2cc(-c3ccc(F)cc3)nn2C)[C@H](c2ccc(F)c(F)c2)C1 [Example 113]"
  IC50: "< 0.1 µM"
- COMPOUND: "CCOc1nn(-c2ccccc2)c(NC(=O)N[C@@H]2CN(c3ccccc3OC(F)(F)F)C[C@H]2c2ccccc2)c1C [Example 239]"
  IC50: "0.1 to 1 µM"
- COMPOUND: "COCCN1C[C@@H](NC(=O)Nc2c(C#N)c(OC)nn2-c2ccccc2)[C@H](c2ccc(F)c(F)c2)C1 [Example 615]"
  IC50: "< 0.1 µM"
- COMPOUND: "CCN1C[C@@H](NC(=O)Nc2c3c(nn2-c2ccccc2)CCC3)[C@H](c2ccccc2)C1 (relative stereo) [Example 193]"
  IC50: "0.1 to 1 µM"
- COMPOUND: "COCCN1C[C@@H](NC(=O)Nc2c(Cl)c([C@H]3CCCN3C(=O)OC(C)(C)C)nn2-c2ccccc2)[C@H](c2ccc(F)c(F)c2)C1 [Example 572]"
  IC50: "0.1 to 1 µM"

Could you share what IC50 was measured for COCCN1C[C@@H](NC(=O)Nc2c(C)c([C@@H]3CCCN3)nn2-c2ccccc2)[C@H](c2cc(F)cc(F)c2)C1 [Example 586, dihydrochloride] , tested on TrkA (Homo sapiens (Human), UniProt P04629)?
< 0.1 µM

Could you share what IC50 was measured for COCCN1C[C@@H](NC(=O)Nc2c(C)c(-c3cc(C)n(C)n3)nn2-c2ccccc2)[C@H](c2ccc(F)cc2)C1 [Example 307] , tested on TrkA (Homo sapiens (Human), UniProt P04629)?
< 0.1 µM

###

Structures can show the parent of a compound that is named as a salt.
Here's a batch of compounds along with measured IC50 for TrkA (Homo sapiens (Human), UniProt P04629).

Previously resolved entries follow.
- COMPOUND: "COCCN1C[C@@H](NC(=O)Nc2c(C)c([C@@H]3CCCN3)nn2-c2ccccc2)[C@H](c2ccc(F)c(F)c2)C1 [Example 584, dihydrochloride]"
  EXPERIMENTAL ENDPOINT: "IC50"
  REPORTED VALUE: "< 100 nM"
- COMPOUND: "COCCN1C[C@@H](NC(=O)Nc2c(C)c([C@@H]3CCCN3C)nn2-c2ccccc2)[C@H](c2cc(F)cc(F)c2)C1 [Example 598, dihydrochloride]"
  EXPERIMENTAL ENDPOINT: "IC50"
  REPORTED VALUE: "< 100 nM"

Now look at this entry.
For the compound shown here, COCCN1C[C@@H](NC(=O)Nc2c(C)c(-c3ccccn3)nn2-c2ccccc2)[C@H](c2ccc(F)c(F)c2)C1 [Example 488] , give the reported IC50.
< 100 nM
